- assayText: Pharmacokinetic profile, cassette dosing protocol in dog (IV and PO)
- Type: in vivo
- testConditions: dog, plasma, male beagle dogs, 1 mg/kg, oral dose
- Description: The pharmacokinetic profiles of EXAMPLE 20, EXAMPLE 22, EXAMPLE 29 and EXAMPLE 31 were evaluated using cassette dosing protocols in dog. The cassette dosing protocol in dogs combined three test compounds with the reference compound (EXAMPLE 104 of commonly-owned U.S. Pat. No. 5,866,549), each at a dose of 1 mg/kg. […] The plasma concentrations of the test compound and reference compounds were simultaneously determined using HPLC-MS/MS following liquid-liquid extraction of the samples. […]
Overview of reported Cmax across a group of compounds:
Write the numeric value and follow it with the unit.

compound | propertyName | valueReported
CC[C@H]1OC(=O)[C@@](C)(F)C(=O)[C@H](C)[C@@H](O[C@@H]2O[C@H](C)C[C@H](N(C)C)[C@H]2O)C(C)(OC/C=C/c2ccc(-c3nnn(C)n3)s2)C[C@@H](C)C(=O)[C@H](C)[C@H]2NC(=O)O[C@@]21C (stereo in doubt) [EXAMPLE 31] | Cmax | 480 ng/mL
CC[C@H]1OC(=O)[C@@](C)(F)C(=O)[C@H](C)[C@@H](O[C@@H]2O[C@H](C)C[C@H](N(C)C)[C@H]2O)C(C)(OCC#Cc2ccc(-c3nnn(C)n3)s2)C[C@@H](C)C(=O)[C@H](C)[C@H]2NC(=O)O[C@@]21C (stereo in doubt) [EXAMPLE 20] | Cmax | 250 ng/mL

Next compound, Cmax to be filled in.
[Q] So what does the record say about Cmax for CC[C@H]1OC(=O)[C@H](C)C(=O)[C@H](C)[C@@H](O[C@@H]2O[C@H](C)C[C@H](N(C)C)[C@H]2O)C(C)(OC/C=C/c2ccc(-c3nnn(C)n3)s2)C[C@@H](C)C(=O)[C@H](C)[C@H]2NC(=O)O[C@@]21C (stereo in doubt) [EXAMPLE 22] ?
[A] 490 ng/mL

Values compiled from patent US20050267054A1.
